System: TC-71 (Ewing's Sarcoma)
Assay: combination Emax (second highest fraction inhibited in the dose matrix, 72 h); higher = more inhibition; extreme values may be limits of the assay
# key: entry, value: combination Emax
// return just the number, without any unit appended

These solved cases illustrate the format of a correct answer.
>>> value("CC(=O)Nc1cccc(-n2c(=O)n(C3CC3)c(=O)c3c(Nc4ccc(I)cc4F)n(C)c(=O)c(C)c32)c1 [Trametinib] + Cc1nc(-c2cn3c(n2)-c2ccc(-c4cnn(C(C)(C)C(N)=O)c4)cc2OCC3)n(C(C)C)n1 [Taselisib] (first compound max 1 µM, 7x7, partner max 10 µM)")
0.714
>>> value("C=CCn1c(=O)c2cnc(Nc3ccc(N4CCN(C)CC4)cc3)nc2n1-c1cccc(C(C)(C)O)n1 [AZD1775] + C1CN(CCC1(C(=O)N[C@@H](CCO)C2=CC=C(C=C2)Cl)N)C3=NC=NC4=C3C=CN4 [Capivasertib] (first compound max 3 µM, partner max 3 µM)")
0.92

Reported combination Emax for COc1nnc2ccc(N3CCC(c4ccc(OCCN5CCN(C)C(=O)[C@H]5C)cc4)CC3)nn12 [AZD5153] + CCN(CCO)CCCOc1ccc2c(Nc3cc(CC(=O)Nc4cccc(F)c4)[nH]n3)ncnc2c1 [AZD2811] (first compound max 1 µM, 7x7, partner max 1 µM) : what is it? 0.884

* * *

Test system: TOV-112D (Ovarian Carcinoma)
Experiment: Bliss excess, mean over the matrix (fraction); higher = more synergy
Observation type: Bliss excess
A bare number is all that is needed in reply.

Worked cases, answers included:
>>> value("NC1(C(=O)N[C@@H](CCO)c2ccc(Cl)cc2)CCN(c2ncnc3[nH]ccc23)CC1 [Capivasertib] + Cn1cnc2c(F)c(Nc3ccc(Br)cc3Cl)c(C(=O)NOCCO)cc21 [Selumetinib] (first compound max 10 µM, 7x7, partner max 10 µM)")
0.0272
>>> value("Cc1c2c(nn1C)CSCc1cc(n(C)n1)CSc1cc(c3ccccc3c1)OCCCc1c(C(=O)O)n(C)c3c-2c(Cl)ccc13 [AZD5991] + C1CN(CCC1(C(=O)N[C@@H](CCO)C2=CC=C(C=C2)Cl)N)C3=NC=NC4=C3C=CN4 [Capivasertib] (first compound max 1 µM, 7x7, partner max 3 µM)")
-0.0181
>>> value("CC(=O)Nc1cccc(-n2c(=O)n(C3CC3)c(=O)c3c(Nc4ccc(I)cc4F)n(C)c(=O)c(C)c32)c1 [Trametinib] + Cc1nc(-c2cn3c(n2)-c2ccc(-c4cnn(C(C)(C)C(N)=O)c4)cc2OCC3)n(C(C)C)n1 [Taselisib] (first compound max 1 µM, 7x7, partner max 10 µM)")
0.176

Now take the following compound into account.
Name the reported Bliss excess value associated with the compound CC1(C)CCC(CN2CCN(c3ccc(C(=O)NS(=O)(=O)c4ccc(NCC5CCOCC5)c([N+](=O)[O-])c4)c(Oc4cnc5[nH]ccc5c4)c3)CC2)=C(c2ccc(Cl)cc2)C1 [Venetoclax] + CN(C)CCCOc1ccc(-c2ccc3ncc4c(c3c2)n(C2CCOCC2)c(=O)n4C)cn1 [AZD0156] (first compound max 1 µM, 7x7, partner max 1 µM) -0.0341

* * *

System: MKN28 (Gastric Carcinoma)
Experiment: Bliss excess, mean over the matrix (fraction); higher = more synergy
# label = Fulfilled if Bliss excess >= -0.03 else Not fulfilled

# example entries with known answers
>>> label("CN(CCO)CC[C@H](CSc1ccccc1)Nc1ccc(S(=O)(=O)NC(=O)c2ccc(N3CCC([C@@H](O)c4ccccc4-c4ccc(Cl)cc4)CC3)cc2)cc1S(=O)(=O)C(F)(F)F [AZD4320] + CCN(CCO)CCCOc1ccc2c(Nc3cc(CC(=O)Nc4cccc(F)c4)[nH]n3)ncnc2c1 [AZD2811] (first compound max 1 µM, 7x7, partner max 1 µM)")
"Fulfilled"
>>> label("Cn1cnc2c(F)c(Nc3ccc(Br)cc3Cl)c(C(=O)NOCCO)cc21 [Selumetinib] + C[C@@H]1COCCN1C2=NC(=NC(=C2)C3(CC3)[S@](=N)(=O)C)C4=C5C=CNC5=NC=C4 [AZD6738] (first compound max 10 µM, 7x7, partner max 10 µM)")
"Not fulfilled"
>>> label("Cc1cc2ncnn2cc1Nc1ncc2c(n1)n(C1CCOCC1)c(=O)n2C [AZD7648] + C[C@@H]1COCCN1C2=NC(=NC(=C2)C3(CC3)[S@](=N)(=O)C)C4=C5C=CNC5=NC=C4 [AZD6738] (first compound max 10 µM, 7x7, partner max 10 µM)")
"Fulfilled"
>>> label("Cc1nc(-c2cn3c(n2)-c2ccc(-c4cnn(C(C)(C)C(N)=O)c4)cc2OCC3)n(C(C)C)n1 [Taselisib] + O=C(Nc1ccc2[nH]nc(-c3ccncc3)c2c1)[C@@H]1CCN(CC(=O)N2CCN(c3ccc(-c4ncccn4)cc3)CC2)C1 [SCH772984] (first compound max 10 µM, 7x7, partner max 5 µM)")
"Fulfilled"

Okay, now this compound:
Would you say CCN(CCO)CCCOc1ccc2c(Nc3cc(CC(=O)Nc4cccc(F)c4)[nH]n3)ncnc2c1 [AZD2811] + C=CCn1c(=O)c2cnc(Nc3ccc(N4CCN(C)CC4)cc3)nc2n1-c1cccc(C(C)(C)O)n1 [AZD1775] (first compound max 1 µM, partner max 1 µM) shows Bliss excess at minimum -0.03? Not fulfilled
